molecular target: FL-SMARCA4 (Homo sapiens, UniProt P51532); experiment: SMARCA4 ATPase activity assay (ADP-Glo, chicken mononucleosome substrate); details: FL-SMARCA4 IC50, Table 3.2; ATPase assay, enzyme 5 nM, ATP 250 uM, chicken mononucleosome 10 nM, 30 min preincubation
Sequence (P51532 whole entry): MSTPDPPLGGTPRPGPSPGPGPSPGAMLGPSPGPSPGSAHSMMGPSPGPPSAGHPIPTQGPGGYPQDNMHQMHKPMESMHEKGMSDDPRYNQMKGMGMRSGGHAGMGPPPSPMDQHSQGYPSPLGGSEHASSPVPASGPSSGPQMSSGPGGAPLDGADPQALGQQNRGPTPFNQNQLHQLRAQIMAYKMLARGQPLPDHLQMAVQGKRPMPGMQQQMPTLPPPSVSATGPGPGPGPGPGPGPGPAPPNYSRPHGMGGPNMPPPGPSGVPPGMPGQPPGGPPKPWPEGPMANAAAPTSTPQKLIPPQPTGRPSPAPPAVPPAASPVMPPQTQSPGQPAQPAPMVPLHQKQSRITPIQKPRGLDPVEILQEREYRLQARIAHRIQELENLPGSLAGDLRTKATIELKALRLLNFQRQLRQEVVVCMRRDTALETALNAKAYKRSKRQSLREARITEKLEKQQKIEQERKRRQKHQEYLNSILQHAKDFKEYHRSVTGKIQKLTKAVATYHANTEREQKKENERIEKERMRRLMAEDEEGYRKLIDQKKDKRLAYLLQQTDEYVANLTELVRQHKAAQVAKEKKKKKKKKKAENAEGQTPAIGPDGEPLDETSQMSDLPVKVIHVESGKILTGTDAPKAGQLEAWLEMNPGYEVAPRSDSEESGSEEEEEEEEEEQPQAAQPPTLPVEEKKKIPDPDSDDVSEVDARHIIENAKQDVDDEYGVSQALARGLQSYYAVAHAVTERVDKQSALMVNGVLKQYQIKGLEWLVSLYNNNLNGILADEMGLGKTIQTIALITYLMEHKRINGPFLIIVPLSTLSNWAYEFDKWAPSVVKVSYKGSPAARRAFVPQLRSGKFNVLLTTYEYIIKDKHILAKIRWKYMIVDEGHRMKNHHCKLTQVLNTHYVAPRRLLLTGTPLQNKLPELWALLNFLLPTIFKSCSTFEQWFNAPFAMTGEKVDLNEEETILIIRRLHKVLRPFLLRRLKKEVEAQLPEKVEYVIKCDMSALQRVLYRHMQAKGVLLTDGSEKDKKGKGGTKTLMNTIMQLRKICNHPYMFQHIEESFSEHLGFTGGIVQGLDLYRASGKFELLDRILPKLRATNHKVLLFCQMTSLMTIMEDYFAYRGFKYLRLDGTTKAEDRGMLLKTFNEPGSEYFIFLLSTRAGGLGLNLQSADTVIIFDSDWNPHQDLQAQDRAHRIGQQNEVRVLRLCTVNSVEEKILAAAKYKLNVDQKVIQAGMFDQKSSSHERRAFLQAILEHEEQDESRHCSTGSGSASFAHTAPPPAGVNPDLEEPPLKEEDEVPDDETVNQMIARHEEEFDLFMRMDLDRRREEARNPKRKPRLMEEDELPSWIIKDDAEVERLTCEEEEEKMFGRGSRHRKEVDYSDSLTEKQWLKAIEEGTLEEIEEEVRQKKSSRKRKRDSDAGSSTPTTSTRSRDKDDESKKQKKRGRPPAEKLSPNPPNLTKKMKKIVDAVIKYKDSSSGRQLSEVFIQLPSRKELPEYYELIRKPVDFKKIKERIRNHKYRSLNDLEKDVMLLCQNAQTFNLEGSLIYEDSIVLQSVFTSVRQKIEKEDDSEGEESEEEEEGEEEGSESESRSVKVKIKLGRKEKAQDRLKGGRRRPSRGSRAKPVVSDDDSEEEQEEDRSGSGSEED
quantity: IC50 (µM)

Cn1c(C(=O)Nc2cc(Cl)c(=O)n(CC(F)(F)F)c2)cc(Cl)c1C#N ... 1.17
N#Cc1cc(C(=O)Nc2ccc(=O)n(CC(F)F)c2)sc1Cl ... 0.562
CCn1cc(NC(=O)c2cc(Cl)c(Cl)s2)cc(NCCOC)c1=O ... 16.6
CCn1cc(NC(=O)c2cc(Cl)c(C#N)s2)ccc1=O ... 0.669
CCn1cc(NC(=O)c2cc(C#N)c(C#N)s2)cc(F)c1=O ... 0.119
O=C(Nc1cc(NCCc2cccnc2)c(=O)n(CCF)c1)c1cc(Cl)c(Cl)s1 ... 23.7
O=C(Nc1cc(F)c(=O)n(CCF)c1)c1cc(C(F)(F)F)no1 ... 38.5
O=C(Nc1cc(F)c(=O)n(CC(F)F)c1)c1cc(Cl)c(C(F)(F)F)s1 ... 0.165
CCn1cc(NC(=O)c2cc(C#N)c(Cl)s2)cc(Cl)c1=O ... 1.07
Cn1c(C(=O)Nc2cc(Cl)c(=O)n(CC(F)(F)F)c2)cnc1Cl ... 29.8
N#Cc1sc(C(=O)Nc2ccc(=O)n(CC(F)F)c2)cc1Cl ... 0.3
CCn1cc(NC(=O)c2cc(Cl)c(C#N)n2C)cc(Cl)c1=O ... 4.03
CCn1cc(NC(=O)c2cc(C#N)c(C#N)s2)ccc1=O ... 0.313
N#Cc1sc(C(=O)Nc2cc(Cl)c(=O)n(CC(F)(F)F)c2)cc1Cl ... 0.303
O=C(Nc1cc(F)c(=O)n(CCF)c1)c1cnc(Cl)s1 ... 0.163
N#Cc1cc(NC(=O)c2cc(Cl)c(Cl)[nH]2)cn(CC(F)(F)F)c1=O ... 27.5
O=C(Nc1cc(Cl)c(=O)n(CCF)c1)c1cc(Cl)c(Cl)s1 ... 0.237
N#Cc1[nH]c(C(=O)Nc2cc(Cl)c(=O)n(CC(F)(F)F)c2)cc1Cl ... 0.863
O=C(Nc1cc(F)c(=O)n(CCF)c1)c1cc(C#Cc2cccnc2)c(Cl)s1 ... 0.108
